These measurements were taken from the Human Domainome abundance scans (Beltran et al. 2025).

B1: Formin-binding protein 4, residues 200 to 261; numbered along this chain, Q8N3X1 (parent)
chain: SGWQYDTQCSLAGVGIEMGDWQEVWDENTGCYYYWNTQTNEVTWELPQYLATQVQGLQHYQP

# Variants of: B1
# measurement-notes: abundance fitness (aPCA) (normalised: wild type 0, dead -1); higher = more abundant; growth selection in yeast, the domain comes from the species named
# measurement-parameters: Homo sapiens
readout-name: abundance fitness

Would you please look over these solved cases?
Y5F | -0.115
Q4M | 0.165
S10H | -0.644
Q61G | -0.018
Y33D | -0.706
W25E | -0.414
W21K | -1.05
E45M | -0.325
Q4P | -0.635
Y5T | -0.271

Input `G15E` , output reported abundance fitness.
-0.178

For the variant `Q58P` , give its measured abundance fitness value.
-0.209

Please look at this variant and report its abundance fitness: `T43K`
-0.172

Provide only the value of recorded abundance fitness for `L50Y`
-0.738

Check the records and state abundance fitness for `W44H`
-0.236

Provide abundance fitness value for the following variant: `D26M`
-0.09

Quote abundance fitness reported for `N40Y` please.
-0.564

Provide only the value of recorded abundance fitness for `G19I`
-0.769

Item `G19N` : provide abundance fitness
-0.676

Please report abundance fitness for the following variant: `T7M`
-0.37
